# study-target: T1, eukaryotically produced human IL-6 (human, UniProt P05231 30-212)
# T1 construct: also called eukIL-6; Euk IL-6
# experiment: SPR; periplasmic fraction; against parental 29B11
reported-metric: fold improvement KD (fold)
One number for each entry, in fold.

Param item = Fab 55C1 (Fab, V domains shown, VL-shuffled Fab of 29B11, periplasmic fraction; also called 55C1a) VH: EVQLVESGGGLVQPGGSLRLSCAASGFTFSSYAMSWVRQAPGKGLEWVSRISSGGISTYYADSVKGRFTISRDNAKNTLYLQMNSLKPEDTAVYYCVRYAWGVQWAFDFWGQGTQVTVSS VL: LNFMLTQPPSVSGSPGKTVTISCAGTSSDVGYGNYVSWYQQLPGTAPKLLIYNVNKRASGITDRFSGSKSGNTASLTISGLQSEDEADYYCASYRTGDNAAFGGGTKLTVLG ; retrieve measured fold improvement KD.
3.03
